- Test system: NCI-H460 lung
- assayName: NCI tumour cell line growth inhibition, 48 h
metric: TGI

Query: Complete the entry with TGI for CC1S/C(=N\N=C2/C(=O)Nc3ccc(Br)cc32)N(C2CCCCC2)C1=O (stereo unspecified)
Response: 18.8 µM

Query: Identify TGI associated with the molecule CCc1nc2cc(F)c(/C=C/C(=O)NO)cc2c(=O)n1CCc1ccccc1
Response: 3.17 µM

Query: Tell me TGI reported for Cc1[nH]c(=O)nc2[nH][nH]c(=O)c12
Response: > 100 µM

Query: Hello, please tell me recorded TGI for this one: CCOC(=O)Cc1nc2cc(F)c(F)cc2[nH]c1=O
Response: > 100 µM

Query: Answer with reported TGI of Nc1nc(-c2ccccc2)cc(-c2ccc(OCc3ccccc3)cc2O)n1
Response: > 100 µM

Query: Tell me its TGI given CN(C)CCC1(C2=CCCC2)CC/C(=C\c2ccc(Cl)cc2)C1=O (stereo unspecified) as the entry.
Response: 26.9 µM

Query: Kindly indicate its recorded TGI. Item: COC(=O)CC1N=C(NC#N)N(CCc2c[nH]c3ccccc23)C1=O (stereo unspecified)
Response: > 100 µM

Query: Output measured TGI for this item: O=c1cc(-c2ccc(Oc3ccccc3)cc2)[nH]c2cc3c(cc12)OCO3
Response: > 100 µM

Query: Return TGI for the following molecule: C1=Cc2cc3c(c4nccc(c24)N1)OCO3
Response: > 30.6 µM

Query: Quote TGI reported for COCC[C@H]1CCC/C=C/[C@@H]2C[C@H](O)C[C@H]2[C@H](O)/C=C/C(=O)O1 please.
Response: > 100 µM

Query: Quickly give me recorded TGI for NC(=O)c1cc(Cl)ccc1NC(=O)/C=C/c1ccccc1
Response: > 100 µM

----------
Assign TGI to each entry below.
- Test system: IGROV1 ovarian
- assayName: NCI tumour cell line growth inhibition, 48 h

Query: Give a short answer stating reported TGI for O=C1C2C3C=C4c5ccccc5N(c5ccccc5)C4(C2C(=O)N1c1ccc([N+](=O)[O-])cc1)[C@H]1C(=O)N(c2ccc([N+](=O)[O-])cc2)C(=O)[C@@H]31 (stereo partly drawn) .
Response: > 100 µM

Query: Supply recorded TGI for COC(=O)C(CC(=O)Nc1ccc(C)cc1)C(=O)C(=O)Nc1c(C(C)C)cccc1C(C)C (stereo not drawn) here.
Response: > 100 µM

Query: Kindly indicate its recorded TGI. Item: CCCCC(CC)COC(=O)C[N+](C)(C)CCOC(c1ccccc1)c1ccccc1 (stereo not drawn)
Response: 3.58 µM

Query: Note TGI for the molecule shown: C(/C=C/Nc1ccc(Oc2ccccc2)cc1)=Nc1ccc(Oc2ccccc2)cc1
Response: 33 µM

Query: Output measured TGI for this item: O=C1NC(=S)NC(=O)C1C(c1ccc(O)cc1)C1C(=O)NC(=S)NC1=O
Response: > 100 µM

Query: Fill in reported TGI for this entry: Cc1ccc(NC(=O)c2cccc(C(C)(C)C#N)c2)cc1Nc1ccc2ncn(C)c(=O)c2c1
Response: > 100 µM

Query: Output measured TGI for this item: C[Si](C)(C)OC1CC(=O)OC1n1cc(F)c(=O)[nH]c1=O (stereo not drawn)
Response: > 100 µM

Query: Return reported TGI. Input molecule: CC(=O)C1Cn2c(nc3ccccc32)C[Se]1 (stereo not drawn)
Response: 6.02 µM

Query: Write down TGI measured for item c1ccc(CNc2nncc3[nH]cnc23)cc1
Response: > 100 µM

Query: Assign TGI to the following record: CCCCNC1CCCCC[C@H]1O (stereo partly drawn)
Response: > 100 µM

Query: Give the value of TGI reported for the following: C/C(=N\Nc1ccc(Cl)cn1)c1ccc2ccccc2n1
Response: > 100 µM

Query: Please list TGI recorded for the molecule CN(Cc1ccccc1)C(=O)c1ccccc1C(=O)O
Response: > 100 µM

Query: Supply reported TGI belonging to this molecule: N#Cc1c(-c2ccccc2)[nH]c2ccc(Cl)cc2c1=O
Response: > 100 µM

Query: # return recorded TGI for input C[N+]1(C)CCc2cc(O)c(O)cc2C1Cc1ccc(O)c(O)c1 (stereo not drawn)
Response: > 100 µM

Query: Report TGI, nothing else, for this molecule: COc1ccc(C(=O)c2cc(C)c(OC)c(C)c2)c(OC)c1O
Response: > 100 µM

Query: For the molecule CSc1nnc(SC)nn1 , report TGI.
Response: 31 µM

Query: Identify measured TGI associated with CCCN(CCC)C(=O)c1c([N+](=O)[O-])cc(C(F)(F)F)cc1[N+](=O)[O-]
Response: > 100 µM

Query: Note TGI for the molecule shown: CCC(C)NC1=NCC(C)S1 (stereo not drawn)
Response: > 100 µM

Query: Return reported TGI. Input molecule: Nc1nc(-c2ccccc2)cc(-c2ccc(OCc3ccccc3)cc2O)n1
Response: > 100 µM

Query: Indicate the recorded TGI value for this molecule: C/C(=N/NC(N)=S)c1ccc[nH]1
Response: > 100 µM

Query: Determine from records and report TGI for CCOC(=O)C(=O)Nc1ccccc1CC
Response: > 100 µM

Query: Tell me measured TGI for Nc1nc([O-])c2c(n1)[n+](C1OC(CO)C(O)C1O)cn2CCO (stereo not drawn) please.
Response: > 100 µM

Query: Kindly indicate its recorded TGI. Item: CCN1CCN(c2nc3ccccc3c3c2CCOc2ccccc2-3)CC1
Response: > 58.3 µM

----------
- Test system: SF-539 CNS
- assayName: NCI tumour cell line growth inhibition, 48 h
Could you please report measured TGI for the items listed next?

Query: Print SF-539 CNS TGI for OCC1OC(n2cnc3c2NC=NC[C@H]3O)C(Cl)C1O (stereo partly drawn) .
Response: > 100 µM

Query: Please report the measured TGI for CN1CCc2nc(N)nc(-c3nc(N)nc4c3CN(C)CC4)c2C1 tested on SF-539 CNS.
Response: > 100 µM

Query: Report measured TGI on SF-539 CNS; entry: C=CCCCCC/C=C\[C@@H](O)C#CC#C/C=C/CO
Response: > 100 µM

Query: // fetch TGI; item: CSc1cc(Cl)c(C)cc1S(=O)(=O)NC(=O)NNc1cccc(C(F)(F)F)n1 ; system: SF-539 CNS
Response: > 100 µM

Query: Report TGI on SF-539 CNS for this entry: CCOC(=O)Cc1nc2cc(F)c(F)cc2[nH]c1=O
Response: > 100 µM

Query: Write TGI of COc1ccc2[nH]c3c4[nH]c5ccc(OC)cc5c4c4c(c3c2c1)C(=O)NC4=O ; system used: SF-539 CNS
Response: > 17 µM

Query: Find TGI for CCOC(C)O[C@H]1C(=O)OCC1(C)C (stereo partly drawn) on SF-539 CNS and write it down.
Response: > 100 µM

Query: State, for SF-539 CNS, measured TGI of the molecule listed here: CC12OC(C(=O)C13CC3)C1C(=O)c3ccc4c(ccc5ccccc54)c3C(=O)C12 (stereo not drawn)
Response: > 100 µM

Query: Look up and report TGI, with SF-539 CNS as system, for O=C(Nc1n[nH]c2cc(-c3ccccc3)ccc12)C1CC1
Response: > 25 µM

Query: Please report the measured TGI for CCOP(=O)(OCC)C(c1ccc(F)cc1)N(C(=O)NC(F)(F)F)c1cccc(C(F)(F)F)c1 (stereo not drawn) tested on SF-539 CNS.
Response: > 100 µM

Query: Give TGI only, for CN(C)CCNc1ccc(CO)c2oc3ccc(O)cc3c(=O)c12 , using SF-539 CNS data.
Response: 25.1 µM

Query: Fetch value of TGI on SF-539 CNS for CC1=CC(=O)C=CC1=O .
Response: 31.4 µM

Query: Report measured TGI on SF-539 CNS; entry: [N-]=[N+]=C1C(=O)NN=C1c1ccccc1
Response: > 100 µM

Query: Consider the molecule CC(=O)OC1C(Oc2c(C)cc3c(c2O)[C@@H](C)CC[C@@H]3[C@@H](C)CCC=C(C)C)OCC(O)C1O (stereo partly drawn) tested on SF-539 CNS; state its TGI.
Response: 34.7 µM

Query: State the measured TGI (SF-539 CNS) of c1ccc(CNc2nncc3[nH]cnc23)cc1
Response: > 100 µM

Query: Enter recorded TGI with SF-539 CNS for Nc1ccc(Cc2c(N)[nH]c(=O)[nH]c2=O)cc1 here.
Response: > 100 µM

Query: Fetch value of TGI on SF-539 CNS for CC(=O)C1Cn2c(nc3ccccc32)C[Se]1 (stereo not drawn) .
Response: 4.89 µM

Query: Report the value of TGI obtained on SF-539 CNS for COc1cccc2c1C(=O)c1c(O)c3c(c(O)c1C2=O)CC(O)(C(=O)CO)CC3OC1CC(N2CCOCC2C#N)C(O)C(C)O1 (stereo not drawn) .
Response: < 0.0001 µM
